target: UniProtKB Q12809; assay: Percent inhibition against displacement of 35[S] MK-499 binding to hERG channel expressed in HEK293 cells at a concentration of 10 uM; type: cell-based; conditions: HEK293 cells that express hERG, probe [35S]MK-499
Sequence (Q12809 whole entry): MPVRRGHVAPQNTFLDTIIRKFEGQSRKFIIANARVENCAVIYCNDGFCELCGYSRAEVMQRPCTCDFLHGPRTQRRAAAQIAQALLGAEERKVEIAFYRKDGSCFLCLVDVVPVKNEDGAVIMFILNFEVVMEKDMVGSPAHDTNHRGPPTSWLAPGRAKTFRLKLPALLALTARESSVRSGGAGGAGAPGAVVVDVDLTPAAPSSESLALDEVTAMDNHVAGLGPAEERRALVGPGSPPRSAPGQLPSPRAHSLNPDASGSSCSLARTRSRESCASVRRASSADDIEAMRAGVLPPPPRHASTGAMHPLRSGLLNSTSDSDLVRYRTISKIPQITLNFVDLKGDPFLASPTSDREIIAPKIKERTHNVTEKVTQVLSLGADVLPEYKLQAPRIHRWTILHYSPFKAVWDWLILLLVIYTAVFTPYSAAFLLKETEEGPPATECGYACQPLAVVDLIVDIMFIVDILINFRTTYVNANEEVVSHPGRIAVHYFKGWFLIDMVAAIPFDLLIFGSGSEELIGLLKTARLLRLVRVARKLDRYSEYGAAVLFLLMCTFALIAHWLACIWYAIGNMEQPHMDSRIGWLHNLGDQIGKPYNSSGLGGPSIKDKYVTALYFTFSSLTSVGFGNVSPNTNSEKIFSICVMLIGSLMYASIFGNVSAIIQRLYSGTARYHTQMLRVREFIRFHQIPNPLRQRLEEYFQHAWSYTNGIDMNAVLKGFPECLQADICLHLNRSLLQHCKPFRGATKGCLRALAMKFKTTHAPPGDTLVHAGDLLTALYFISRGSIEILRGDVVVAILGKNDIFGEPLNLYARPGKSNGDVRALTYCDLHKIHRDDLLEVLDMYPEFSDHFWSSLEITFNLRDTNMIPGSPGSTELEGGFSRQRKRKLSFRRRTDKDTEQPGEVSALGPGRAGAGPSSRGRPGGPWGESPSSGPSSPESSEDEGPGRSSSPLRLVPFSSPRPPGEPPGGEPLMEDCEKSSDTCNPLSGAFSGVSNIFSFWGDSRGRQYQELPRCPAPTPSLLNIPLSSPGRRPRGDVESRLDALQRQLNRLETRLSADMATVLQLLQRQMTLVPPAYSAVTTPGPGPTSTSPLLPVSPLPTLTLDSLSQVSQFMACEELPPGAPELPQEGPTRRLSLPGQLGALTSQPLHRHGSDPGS
parameter: inhibition at 10 µM (%)

{"smiles.data": "COc1cccc(C(=O)N2CCCC2)c1OCc1csc(-c2ccc(Cl)cc2)n1", "units.label": "%", "measurement": 50}
{"smiles.data": "O=C(c1ccccc1OCc1csc(-c2ccc(Cl)cc2)n1)N1CCCCC1", "units.label": "%", "measurement": 89}
{"smiles.data": "COc1cccc(C(=O)N2CCCCCCC2)c1OCc1csc(-c2ccc(Cl)cc2)n1", "units.label": "%", "measurement": 88}
{"smiles.data": "O=C(c1ccccc1OCc1csc(-c2ccc(Cl)cc2)n1)N1CCCCCCC1", "units.label": "%", "measurement": 90}
{"smiles.data": "O=C(c1ccccc1OCc1csc(-c2ccc(Cl)cc2)n1)N1CCCCCC1", "units.label": "%", "measurement": 90}
{"smiles.data": "COc1cccc(C(=O)N2CCCCCC2)c1OCc1csc(-c2ccc(Cl)cc2)n1", "units.label": "%", "measurement": 85}
{"smiles.data": "O=C(c1ccccc1OCc1csc(-c2ccc(Cl)cc2)n1)N1CCCC1", "units.label": "%", "measurement": 63}
{"smiles.data": "COc1cccc(C(=O)N2CCCCC2)c1OCc1csc(-c2ccc(Cl)cc2)n1", "units.label": "%", "measurement": 63}

Hello, the source for this data is ChEMBL document CHEMBL1140272, in case you need it.
